System: MCF7
protocol.notes: NCI tumour cell line growth inhibition, 48 h
Activity calls are given as the source filed them. Rule as the data show it: active = GI50 up to about 1.1 µM and inactive = higher.
Possible outcomes: active, inactive

molecule	group
COc1ccc(-c2cc3cc(Cl)cc(Cl)c3oc2=O)cc1OC	inactive
CNC1=C/C(=N/C2=CC(=N/C(=C\C#N)C(C)(C)O)/OC2(C)C)OC1(C)C	inactive
CC(C)(C)OC(=O)N1CCc2[nH][nH]c(=O)c2C1	inactive
Cc1c2ccncc2c(C)c2c1sc1ccccc12	inactive
Cc1nc2ccccc2c(=O)n1NC(=O)c1ccccc1O	inactive
O=c1c(-c2c(-c3ccccc3)oc3ccc(Cl)cc3c2=O)c(-c2ccccc2)oc2ccc(Cl)cc12	inactive
O=CC12c3ccccc3C(c3ccccc31)C1C(=O)NC(=O)C12 (stereo unspecified)	active
CC(C)=CCC/C(C)=C/CCC1(C)C2COC(=O)C21 (stereo unspecified)	inactive
C=C1C[C@@H](O)[C@@H](Br)C(C)(C)[C@@]12C=CC(=O)CC2	inactive
Cc1cc2c(=O)c3ccccc3oc2c(C#N)c1C	inactive
COC(=O)C(CCCCN)NC(C)=O.Cc1ccc(C(=O)Nc2ccc(S(=O)(=O)O)c3cc(S(=O)(=O)O)cc(S(=O)(=O)O)c23)cc1NC(=O)c1cccc(NC(=O)Nc2cccc(C(=O)Nc3cc(C(=O)Nc4ccc(S(=O)(=O)O)c5cc(S(=O)(=O)O)cc(S(=O)(=O)O)c45)ccc3C)c2)c1	inactive
O=C1CC(NC(=O)C(F)(F)F)c2c1csc2Br (stereo unspecified)	inactive
CC1(C)[N+]([O-])=[N+]([O-])C1(C)O (stereo unspecified)	inactive
CN(C)Cc1cc(C(=O)/C=C/c2ccc(Cl)cc2)cc(CN(C)C)c1O	inactive
Nc1ncnc2c1ncn2C1CC(O)C(CO)O1 (stereo unspecified)	inactive
C/C(=N\N=C(\N)OB(F)F)c1ccccn1	inactive
N#Cc1nc(CCC(c2nc(C#N)c(N)o2)N2C(=O)c3ccccc3C2=O)oc1N (stereo unspecified)	inactive
COS(C)(=O)=O	inactive
OCCOCn1nncc1Cn1ncc2c(SCc3ccccc3)ncnc21	inactive
COc1cc([C@H]2c3[nH]c4ccccc4c3C[C@H]3COC(=O)N32)cc(OC)c1O	active
[N-]=[N+]=Nc1cc(=O)[nH]nc1-c1ccccc1	inactive

From: ChEMBL document CHEMBL1201862
